The measured values listed here are drawn from PubChem BioAssay (NCI).

Test system: U251 CNS
Test: NCI-60 one-dose screen, 48 h (100 = growth as untreated, 0 = no growth, -100 = all killed)
Conditions: 10 µM unless noted
The panel holds about 83,000 compounds, 20% with a hit somewhere; the sample as a whole holds those more often.
Could you mark each record TRUE if its growth falls strictly under 30%, and FALSE if it equals or exceeds it?

IN: Regarding `CN1CCN(CCOc2cc(OC3CCOCC3)c3c(Nc4c(Cl)ccc5c4OCO5)ncnc3c2)CC1` , kindly confirm whether its growth is beneath 30%.
OUT: FALSE

IN: Regarding `O=c1nc2c(-c3nc4ccccc4s3)n[nH]n2c2sc3c(c12)CCCC3` , kindly confirm whether its growth is beneath 30%.
OUT: FALSE

IN: Regarding `CN(C)CCOC(=O)Nc1nc2ccc(Sc3ccccc3)cc2[nH]1` , kindly confirm whether its growth is beneath 30%.
OUT: TRUE

IN: Regarding `NC1=Nc2cc(OCCCN3Cc4ccccc4C3)c(OCC3CC3)cc2C12CCCC2` , kindly confirm whether its growth is beneath 30%.
OUT: FALSE

IN: Regarding `Cc1ccc(NC(=O)Nc2ccc(Nc3ncnc4sc5c(c34)CCOC5)cc2)cc1Cl` , kindly confirm whether its growth is beneath 30%.
OUT: FALSE

IN: Regarding `Cn1cc(-c2ccc(F)c(C(F)(F)F)c2)nc1C1CCN(c2ncnc3[nH]ncc23)CC1` , kindly confirm whether its growth is beneath 30%.
OUT: FALSE

IN: Regarding `CCOc1ccc(N=C(C)Nc2ccc(OCC)cc2)cc1` , kindly confirm whether its growth is beneath 30%.
OUT: FALSE

IN: Regarding `COc1ccc(-n2c(=O)c3ccccc3n(Cc3ccc(C(=O)NO)cc3)c2=O)cc1` , kindly confirm whether its growth is beneath 30%.
OUT: TRUE

IN: Regarding `CNC(=O)c1c(C)oc2cc(Oc3ncnc4cc(OC)c(OC)cc34)ccc12` , kindly confirm whether its growth is beneath 30%.
OUT: FALSE

IN: Regarding `CO[C@H]1C[C@@H]2CC[C@@H](C)[C@@](O)(O2)C(=O)C(=O)N2CCCC[C@H]2C(=O)O[C@H]([C@H](C)C[C@@H]2CC[C@@H](OCCO)[C@H](OC)C2)CC(=O)[C@H](C)/C=C(\C)[C@@H](O)[C@H](OC)C(=O)[C@H](C)C[C@H](C)\C=C/C=C/C=C/1C` , kindly confirm whether its growth is beneath 30%.
OUT: FALSE

IN: Regarding `Cc1cc2c(-c3nc4ccccn4c3Nc3cccc4ccccc34)c(O)c(O)cc2c(O)c1-c1c(C)cc2c(-c3nc4ccccn4c3Nc3cccc4ccccc34)c(O)c(O)cc2c1O` , kindly confirm whether its growth is beneath 30%.
OUT: TRUE

IN: Regarding `CC[C@H](Nc1ncnc2nc[nH]c12)c1nc2cccc(F)c2c(=O)n1-c1ccccc1` , kindly confirm whether its growth is beneath 30%.
OUT: FALSE

IN: Regarding `O=C(CNc1nc(-c2ccc(Cl)cc2)cs1)Nc1ccc(-c2nc3ccccc3s2)cc1` , kindly confirm whether its growth is beneath 30%.
OUT: FALSE

IN: Regarding `C[C@]12O[C@H](C[C@]1(O)CO)n1c3ccccc3c3c4c(c5c6ccccc6n2c5c31)CNC4=O` , kindly confirm whether its growth is beneath 30%.
OUT: TRUE

IN: Regarding `Cc1ccc(C(=O)Nc2ccc(CN3CCN(C)CC3)c(C(F)(F)F)c2)cc1C#Cc1cnc2cccnn12` , kindly confirm whether its growth is beneath 30%.
OUT: TRUE

IN: Regarding `CC(=O)O[C@]1(C)C[C@H](O)[C@]2(O)C=CO[C@H](O[C@@H]3O[C@H](CO)[C@@H](O)[C@H](O)[C@H]3O)[C@@H]21` , kindly confirm whether its growth is beneath 30%.
OUT: FALSE

IN: Regarding `CCN1CCN(CCCN(C[C@H]2Cc3ccccc3CN2)[C@H]2CCCc3cccnc32)CC1` , kindly confirm whether its growth is beneath 30%.
OUT: FALSE

IN: Regarding `CSc1nc2ncnc(SC)c2[nH]1` , kindly confirm whether its growth is beneath 30%.
OUT: FALSE

IN: Regarding `COc1cc(-c2cc(-c3ccc(Nc4ccnc5cc(Cl)ccc45)cc3)nc(N3CCOCC3)n2)cc(OC)c1OC` , kindly confirm whether its growth is beneath 30%.
OUT: TRUE

IN: Regarding `Cc1sc2c(c1C)c(=O)nc1c(-c3nc4ccccc4s3)n[nH]n12` , kindly confirm whether its growth is beneath 30%.
OUT: FALSE

IN: Regarding `Cc1[nH]n(C(N)=S)c(=O)c1N=Nc1ccc(S(=O)(=O)Nc2ccncn2)cc1` , kindly confirm whether its growth is beneath 30%.
OUT: FALSE

IN: Regarding COc1cccc2cc(-c3nc(C4CCC(C(=O)O)CC4)n4ncnc(N)c34)[nH]c12 (configuration not stated) , kindly confirm whether its growth is beneath 30%.
OUT: TRUE

IN: Regarding `O=C(Nc1ccc(-c2ccnc(Nc3ccc(N4CCOCC4)cc3)n2)cc1)[C@@H]1CCCN1` , kindly confirm whether its growth is beneath 30%.
OUT: FALSE

IN: Regarding `O=C1CCC(=O)CC1` , kindly confirm whether its growth is beneath 30%.
OUT: FALSE

IN: Regarding `CCN(CC)c1cc2oc3cc(N)cc(=N)c-3nc2cc1C` , kindly confirm whether its growth is beneath 30%.
OUT: TRUE

IN: Regarding COc1ccc(C2OC(c3cc(-c4cc5ccccc5o4)nn3-c3ccccc3)=NN2C(C)=O)cc1 (configuration not stated) , kindly confirm whether its growth is beneath 30%.
OUT: FALSE
